Entry source: paper PMC11131023

Assay: Kidney health in ADPKD mice (i-Stat Chem-8+ blood analysis)
Assay type: in vivo, mouse
Conditions: oral every 3 days P30-P120, day of harvest
measured-metric: Glu (mg/dL)
Give the value, in units of mg/dL, as a plain number.

Entry under test: CN(C)C(=N)N=C(N)N [free metformin, metformin] . Its Glu was 220
